Hey, just so you know, these numbers are from ChEMBL document CHEMBL2040760.

TEST SYSTEM: Peroxisome proliferator-activated receptor gamma (Homo sapiens)
ASSAY NAME: Modulation of full-length human pSG5-fused PPARgamma expressed in MG-63 cells co-expressing pGV-P2-PPRE after 24 hrs by luciferase reporter gene based transactivation assay relative to 5-(4-{[6-(4-hydroxy-3,5-dimethylphenoxy)-1-methyl-1H-benzimidazol- 2-yl]methoxy}benzyl)-1,3-thiazolidine-2,4-dione
Format: cell-based
METRIC NAME: Emax (%)

Solved cases below.
[[record]]
chemical_structure = "COc1cc(O)c2c(c1C(=O)NCc1cccc3ccccc13)OC1=CC(O)=C(C(C)=O)C(=O)[C@]12C"
metric_name = "Emax"
observed_measurement = 47

[[record]]
chemical_structure = "COc1cc(O)c2c(c1C(=O)NCc1c(C)cc(Cl)c3ccccc13)OC1=CC(O)=C(C(C)=O)C(=O)[C@]12C"
metric_name = "Emax"
observed_measurement = 57

[[record]]
chemical_structure = "COc1cc(O)c2c(c1C(=O)NCc1c(C)ccc3c(F)cccc13)OC1=CC(O)=C(C(C)=O)C(=O)[C@]12C"
metric_name = "Emax"
observed_measurement = 39

[[record]]
chemical_structure = "CCc1ccc2ccccc2c1CNC(=O)c1c(OC)cc(O)c2c1OC1=CC(O)=C(C(C)=O)C(=O)[C@]12C"
metric_name = "Emax"
observed_measurement = 39

[[record]]
chemical_structure = "COc1cc(O)c2c(c1C(=O)NCc1c(C)cc(F)c3ccccc13)OC1=CC(O)=C(C(C)=O)C(=O)[C@]12C"
metric_name = "Emax"
observed_measurement = 50


1: COc1cc(O)c2c(c1C(=O)NCc1c(C)ccc3cc(F)ccc13)OC1=CC(O)=C(C(C)=O)C(=O)[C@]12C
2: COc1cc(O)c2c(c1C(=O)NCc1c(C)ccc3ccc(Cl)cc13)OC1=CC(O)=C(C(C)=O)C(=O)[C@]12C
Which item exceeds the other in Emax, 1 or 2 ? Field: selected label. Fill in the label of the entry you choose.
2
